- SYSTEM_TESTED: Fatty-acid amide hydrolase 1 (Rattus norvegicus)
- Sequence (P97612 whole entry): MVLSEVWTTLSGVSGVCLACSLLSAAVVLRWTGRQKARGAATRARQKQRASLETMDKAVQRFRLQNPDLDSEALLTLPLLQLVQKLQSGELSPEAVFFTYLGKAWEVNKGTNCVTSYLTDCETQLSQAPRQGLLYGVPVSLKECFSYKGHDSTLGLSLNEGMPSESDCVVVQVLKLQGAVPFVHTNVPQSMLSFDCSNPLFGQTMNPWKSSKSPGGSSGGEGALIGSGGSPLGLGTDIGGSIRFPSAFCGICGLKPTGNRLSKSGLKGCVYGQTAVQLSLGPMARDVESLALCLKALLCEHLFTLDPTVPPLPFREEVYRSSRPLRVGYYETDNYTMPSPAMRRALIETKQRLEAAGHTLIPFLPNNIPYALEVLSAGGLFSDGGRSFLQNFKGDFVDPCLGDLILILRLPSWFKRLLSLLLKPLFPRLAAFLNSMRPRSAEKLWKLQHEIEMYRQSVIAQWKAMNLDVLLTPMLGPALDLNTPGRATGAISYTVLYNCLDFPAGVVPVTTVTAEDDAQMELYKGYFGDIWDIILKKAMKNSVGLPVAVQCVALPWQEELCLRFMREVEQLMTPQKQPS
// returns NOT MET unless IC50 is strictly below 0.2 µM, in which case MET

Given O=C(Nc1cccnc1)N1CC2(CCCN(Cc3cccc(Oc4ccc(Cl)cc4)c3)C2)C1 , is recorded IC50 strictly lower than 0.2 µM?
NOT MET

For O=C(Nc1cnc2[nH]ccc2c1)N1CC2(CCN(Cc3cccc(Oc4ccc(Cl)cc4)c3)CC2)C1 , is the recorded IC50 below the cut-off of 0.2 µM?
MET

Does the reported IC50 of the following compound sit strictly below 0.2 µM? O=C(Nc1cccnc1)N1CCCC2(CCN(Cc3cccc(Oc4ccc(Cl)cc4)c3)C2)C1 (stereo not drawn)
NOT MET
